# Assay Explanation: in vitro metabolic stability in human liver microsomes (CLint)
# Assay type: in vitro ADME, humans
# Reported Conditions: n = 1
Metric Name: microsomal CLint

Compound	Metric Name	Value
Cc1nnn(C)c1-c1ccc2c3nnc(NCCO)nc3n([C@@H](c3ccccn3)C3CCOCC3)c2c1 (single isomer, unassigned)	microsomal CLint	< 10 µL/min/mg

Input line: Kindly indicate its recorded microsomal CLint. Item: Cc1nnn(C)c1-c1ccc2c3nnc(NCCO)nc3n([C@H](c3ccccn3)C3CCOCC3)c2c1 (single isomer, unassigned)
Output line: < 10 µL/min/mg

----------
# Assay Explanation: in vitro metabolic stability in rat liver microsomes (CLint)
# Assay type: in vitro ADME, rats
# Reported Conditions: n = 1
Reported microsomal CLint values for a set of molecules

Molecule	Value
Cc1nnn(C)c1-c1ccc2c3nnc(NCCO)nc3n([C@@H](c3ccccn3)C3CCOCC3)c2c1 (single isomer, unassigned)	< 10 µL/min/mg

Next molecule, please.
Input line: Kindly indicate its recorded microsomal CLint. Item: Cc1nnn(C)c1-c1ccc2c3nnc(NCCO)nc3n([C@H](c3ccccn3)C3CCOCC3)c2c1 (single isomer, unassigned)
Output line: < 10 µL/min/mg
